# System: Enterococcus faecalis
# Procedure details: Antibacterial activity against vancomycin-resistant Enterococcus faecalis assessed as bacterial growth inhibition incubated for 16 hrs by microplate reader assay
# Type: functional
In this section, each of the compounds is paired with its reported MIC.
// units = µg/mL; emit number, no label

If you can, please state the reported MIC value of CCCCCCCCNC(=O)c1cc(NC(=O)CN(C[C@@H](N)CCCCN)C(=O)CC23CC4CC(CC(C4)C2)C3)cc(NC(=O)CN(C[C@@H](N)CCCCN)C(=O)CC23CC4CC(CC(C4)C2)C3)c1 . 4.5

If you can, please state the reported MIC value of O=C(O)c1cn(C2CC2)c2cc(N3CCNCC3)c(F)cc2c1=O . 0.9

If you can, please state the reported MIC value of CCCCCCCC(=O)NCCNC(=O)c1cc(NC(=O)CN(C[C@@H](N)CCCCN)C(=O)CCCCCCC)cc(NC(=O)CN(C[C@@H](N)CCCCN)C(=O)CCCCCCC)c1 . 4.5
